molecular target: human PCSK9 (Homo sapiens, UniProt Q8NBP7); experiment: PCSK9 ligand binding assay (TR-FRET): interference with binding of human PCSK9 to human LDLR; details: efficacy (Amax), 100% = 1 uM unlabeled human PCSK9, 0% = DMSO
Sequence (Q8NBP7 153-692): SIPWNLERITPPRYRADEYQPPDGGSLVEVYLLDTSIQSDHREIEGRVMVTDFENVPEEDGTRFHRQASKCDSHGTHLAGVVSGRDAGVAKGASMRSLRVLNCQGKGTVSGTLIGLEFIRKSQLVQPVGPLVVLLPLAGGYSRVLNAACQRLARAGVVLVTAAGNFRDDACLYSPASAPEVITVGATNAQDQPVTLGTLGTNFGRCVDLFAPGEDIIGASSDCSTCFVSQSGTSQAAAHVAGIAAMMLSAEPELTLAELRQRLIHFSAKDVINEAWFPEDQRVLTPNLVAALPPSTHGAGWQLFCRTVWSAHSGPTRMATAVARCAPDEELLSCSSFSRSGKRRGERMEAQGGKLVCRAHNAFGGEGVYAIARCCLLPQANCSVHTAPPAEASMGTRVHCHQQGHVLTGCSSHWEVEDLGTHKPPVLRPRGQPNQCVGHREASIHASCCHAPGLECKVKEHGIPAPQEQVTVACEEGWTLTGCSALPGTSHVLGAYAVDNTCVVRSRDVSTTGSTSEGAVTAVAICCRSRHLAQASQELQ
Sequence (Q8NBP7 31-152 partner limits assumed): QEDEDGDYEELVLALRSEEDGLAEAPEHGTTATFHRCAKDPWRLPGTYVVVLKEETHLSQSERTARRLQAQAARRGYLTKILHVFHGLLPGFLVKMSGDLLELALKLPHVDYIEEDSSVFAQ
PARAMETER_MEASURED: Max % inhibition (%)

Q: Look up Max % inhibition: COC[C@@H]1NC(=O)[C@H](C)N(Cc2ccc(Cl)cc2Oc2ccc(-c3cnc(CN4CCC(O)CC4)n3C)cc2)C(=O)C[C@@H](Cc2ccccc2)C(=O)N2CCC[C@@](Cc3ccc(Cl)cc3)(C2)NC1=O.Cl [Compound 61]
A: 109.3

Q: Look up Max % inhibition: Cc1cccc(C[C@@H]2CC(=O)N(Cc3ccc(Cl)cc3Oc3ccc(-c4cnc(CN(C)C)n4C)cc3)[C@@H](C)C(=O)N[C@@H](CO)C(=O)N[C@@]3(Cc4ccc(Cl)cc4)CCCN(C3)C2=O)n1 [Compound 41]
A: 105.9

Q: Look up Max % inhibition: COC[C@@H]1NC(=O)[C@H](C)N(Cc2ccc(Cl)cc2Oc2ccc(-c3cnc(CN(C)C)n3C)cc2)C(=O)C[C@@H](Cc2ncco2)C(=O)N2CCC[C@@](Cc3ccc(Cl)cc3)(C2)NC1=O [Compound 35]
A: 105.0

Q: Look up Max % inhibition: CC[C@@H]1CC(=O)N(Cc2c(F)cc(Cl)cc2Oc2ccc(-c3cnc(CN(C)C)n3C)cc2)[C@@H](C)C(=O)N[C@@H](COC)C(=O)N[C@@]2(Cc3ccc(Cl)cc3)CCCN(C2)C1=O [Compound 63]
A: 117.9

Q: Look up Max % inhibition: CC(=O)C[C@@H]1NC(=O)[C@H](C)N(Cc2ccc(Cl)cc2Oc2ccc(-c3cnc(CN4CCCC4)n3C)cc2)C(=O)C[C@@H](Cc2ccccc2)C(=O)N(C)C[C@@H](Cc2ccc(Cl)cc2)N(C)C1=O.Cl [Compound 129]
A: 87.3

Q: Look up Max % inhibition: C[C@H]1C(=O)N[C@@H](CO)C(=O)N[C@@]2(Cc3ccc(Cl)cc3)CCCN(C2)C(=O)[C@H](Cc2ccccc2)NC(=O)N1Cc1ccc(Cl)cc1Oc1ccc(-c2cnc(CN(C)C)n2C)cc1.Cl [Compound 60]
A: 106.6

Q: Look up Max % inhibition: CCc1ccc(CN2C(=O)C[C@@H]([C@@H]3CCc4ccccc43)C(=O)N(C)C[C@H](Cc3ccc(Cl)cc3)N(C)C(=O)[C@H](CO)NC(=O)[C@@H]2C)c(Oc2ccc(-c3cnc(CN(C)C)n3C)cc2)c1 [Compound 118]
A: 95.2

Q: Look up Max % inhibition: COC[C@@H]1NC(=O)[C@H](C)N(Cc2ccc(Cl)cc2Oc2ccc(-c3cnc(CN(C)C)n3C)cc2)C(=O)C[C@@H](Cc2cccc(C)n2)C(=O)N2CCC[C@@](Cc3ccc(Cl)cc3)(C2)NC1=O [Compound 4]
A: 106.4

Q: Look up Max % inhibition: COC[C@@H]1NC(=O)[C@H](C)N(Cc2ccc(Cl)cc2Oc2ccc(-c3cnc(CN(C)C)n3C)cc2)C(=O)C[C@@H]([C@@H]2CCc3ccccc32)C(=O)N2CCC[C@@](Cc3ccc(Cl)cc3)(C2)NC1=O.Cl [Compound 95]
A: 102.5

Q: Look up Max % inhibition: C[C@H]1C(=O)N[C@@H](CO)C(=O)N[C@@]2(Cc3ccc(Cl)cc3)CCCN(C2)C(=O)[C@H](Cc2ccccc2)CC(=O)N1Cc1ccc(Cl)cc1Oc1ccc(-c2nnc(CN(C)C)n2C)cc1 [Compound 56]
A: 101.7

Q: Look up Max % inhibition: C[C@H]1C(=O)N[C@@H](CO)C(=O)N[C@@]2(Cc3ccc(Cl)cc3)CCCN(C2)C(=O)[C@H](Cc2ccccn2)CC(=O)N1Cc1ccc(Cl)cc1Oc1ccc(-c2cnc(CN3CCCC3)n2C)cc1 [Compound 1]
A: 103.2

Q: Look up Max % inhibition: CC[C@@H]1CC(=O)N(Cc2ccc(Cl)cc2Oc2ccc(-c3cnc(CN4CCCC4)n3C)cc2)[C@@H](C)C(=O)N[C@@H](CO)C(=O)N(C)[C@H](Cc2ccc(Cl)cc2)CNC1=O.Cl [Compound 124]
A: 96.8

Q: Look up Max % inhibition: C[C@H]1C(=O)N[C@@H](CO)C(=O)N[C@@]2(Cc3ccc(Cl)cc3)CCCN(C2)C(=O)[C@H]([C@@H]2CCc3ccccc32)CC(=O)N1Cc1ccc(Cl)cc1Oc1ccc(-c2cnc(CN3CCCC3)n2C)cc1.Cl [Compound 74]
A: 99.1
